From: paper PMC6271338

Entries annotated with measured SI (CC50 HMLE/IC50 Hela)
- Tested on: HeLa cells
- Test Method Notes: In vitro anti-proliferative SRB assay, HeLa
- Assay type: cell-based, human
- Test Settings: selectivity index, HMLE vs HeLa
Experimental Readout: SI (CC50 HMLE/IC50 Hela)

> print(dat)
                            structure.smiles  data.value
 1         COc1cccc(OC)c1/C=C/C(=O)c1ccccc1C         0.8
 2    COc1cccc(OC)c1/C=C/C(=O)c1ccc(C)c(C)c1         0.8
 3       COc1cccc(OC)c1/C=C/C(=O)c1cccc(O)c1         0.7
 4       COc1cccc(OC)c1/C=C/C(=O)c1ccc(O)cc1         1.0
 5       COc1cccc(OC)c1/C=C/C(=O)c1cccc(N)c1         1.6
 6      COc1cccc(C(=O)/C=C/c2c(OC)cccc2OC)c1         0.8
 7    COc1ccc(C(=O)/C=C/c2cc(OC)cc(OC)c2)cc1         0.3
 8  COc1ccc(OC)c(C(=O)/C=C/c2c(OC)cccc2OC)c1         0.5
 9       COc1cccc(OC)c1/C=C/C(=O)c1ccc(F)cc1         0.7
10  COc1cccc(OC)c1/C=C/C(=O)c1ccc(Cl)c(Cl)c1         1.6
11   CCOc1cc(OC)ccc1C(=O)/C=C/c1c(OC)cccc1OC         1.1

* * *

- Tested on: MCF-7 cells
- Test Method Notes: In vitro anti-proliferative SRB assay, MCF-7
- Type: cell-based, human
- Test Settings: selectivity index, HMLE vs MCF7
Entries annotated with measured SI (CC50 HMLE/IC50 MCF7)
Experimental Readout: SI (CC50 HMLE/IC50 MCF7)

> print(dat)
                            structure.smiles      experimental.readout  inequality.symbol  data.value
 1   COc1cccc(OC)c1/C=C/C(=O)c1ccc2c(c1)CCO2  SI (CC50 HMLE/IC50 MCF7)                  =         0.6
 2     CCOc1ccc(C(=O)/C=C/c2c(OC)cccc2OC)cc1  SI (CC50 HMLE/IC50 MCF7)                  =         0.7
 3       COc1cccc(OC)c1/C=C/C(=O)c1cccc(C)c1  SI (CC50 HMLE/IC50 MCF7)                  =         0.6
 4       CCOc1ccccc1C(=O)/C=C/c1c(OC)cccc1OC  SI (CC50 HMLE/IC50 MCF7)                  =         0.1
 5     COc1cccc(OC)c1/C=C/C(=O)c1ccc(C#N)cc1  SI (CC50 HMLE/IC50 MCF7)                  <         0.4
 6  COc1cccc(OC)c1/C=C/C(=O)c1ccc(Cl)c(Cl)c1  SI (CC50 HMLE/IC50 MCF7)                  =         1.0
 7         COc1cccc(OC)c1/C=C/C(=O)c1ccccc1O  SI (CC50 HMLE/IC50 MCF7)                  =         0.8
 8  COc1ccc(OC)c(C(=O)/C=C/c2c(OC)cccc2OC)c1  SI (CC50 HMLE/IC50 MCF7)                  =         0.4
 9         COc1cccc(OC)c1/C=C/C(=O)c1ccccc1F  SI (CC50 HMLE/IC50 MCF7)                  >         4.3
10       COc1cccc(OC)c1/C=C/C(=O)c1cccc(O)c1  SI (CC50 HMLE/IC50 MCF7)                  =         0.7
11     CCOc1cccc(C(=O)/C=C/c2c(OC)cccc2OC)c1  SI (CC50 HMLE/IC50 MCF7)                  =         0.8
12    COc1ccc(C(=O)/C=C/c2c(OC)cccc2OC)cc1OC  SI (CC50 HMLE/IC50 MCF7)                  =         0.5
13    COc1cccc(OC)c1/C=C/C(=O)c1ccc(C)c(C)c1  SI (CC50 HMLE/IC50 MCF7)                  =         0.5
14   COc1ccc(C(=O)/C=C/c2c(OC)cccc2OC)c(O)c1  SI (CC50 HMLE/IC50 MCF7)                  =         0.6
15       COc1cccc(OC)c1/C=C/C(=O)c1ccc(C)cc1  SI (CC50 HMLE/IC50 MCF7)                  =         0.5
16       COc1cccc(OC)c1/C=C/C(=O)c1ccc(F)cc1  SI (CC50 HMLE/IC50 MCF7)                  =         0.4
17    COc1ccc(C(=O)/C=C/c2cc(OC)cc(OC)c2)cc1  SI (CC50 HMLE/IC50 MCF7)                  =         0.1
18         COc1cccc(OC)c1/C=C/C(=O)c1ccccc1C  SI (CC50 HMLE/IC50 MCF7)                  =         0.8
19      COc1cccc(C(=O)/C=C/c2c(OC)cccc2OC)c1  SI (CC50 HMLE/IC50 MCF7)                  =         1.3
20      COc1cccc(OC)c1/C=C/C(=O)c1cccc(Cl)c1  SI (CC50 HMLE/IC50 MCF7)                  =         0.4
21       COc1cccc(OC)c1/C=C/C(=O)c1ccc(O)cc1  SI (CC50 HMLE/IC50 MCF7)                  =         0.6
22          COc1cccc(OC)c1/C=C/C(=O)c1ccccc1  SI (CC50 HMLE/IC50 MCF7)                  =         0.3
23    COc1cccc(OC)c1/C=C/C(=O)c1ccc(Cl)cc1Cl  SI (CC50 HMLE/IC50 MCF7)                  =         0.7
